Procedure Details: Phase I pharmacokinetic profile: blood concentration vs time by HPLC-MS/MS after a single 10 mg/kg dose
Assay type: in vivo, C57BL/6Crl mice
Protocol Conditions: C57BL/6Crl, mouse, whole blood, po; 10 mg/kg p.o., male mice, blood
Readout Name: Cmax (ng/mL)
Numbers only, in ng/mL.

Item: `CCCCCc1cc(O)c(C/C=C(\C)CCC=C(C)C)c(O)c1` | Cmax: 10.5

====

Procedure Details: Phase I pharmacokinetic profile: blood concentration vs time by HPLC-MS/MS after a single 10 mg/kg dose
Assay type: in vivo, C57BL/6Crl mice
Protocol Conditions: C57BL/6Crl, mouse, whole blood, iv; 10 mg/kg i.v., male mice, blood
Readout Name: half-life (h)
Answers are plain numbers, in h.

// half-life lookup, compound = `CCCCCc1cc(O)c(C/C=C(\C)CCC=C(C)C)c(O)c1` , result: 9.9

====

Procedure Details: Phase II blood concentration 10 min after i.v. administration (HPLC-MS/MS)
Protocol Conditions: both, C57BL/6Crl, mouse, whole blood, intravenous, 10 mg/kg
Readout Name: concentration at 10 min (ng/mL)
One number for each entry, in ng/mL.

// sample CCCCCc1cc(O)c(C/C=C(\C)CCC=C(C)C)c(O)c1 [CBG, cannabigerol] , its concentration at 10 min was 2700

====

Procedure Details: Phase I pharmacokinetic profile: blood concentration vs time by HPLC-MS/MS after a single 10 mg/kg dose
Assay type: in vivo, C57BL/6Crl mice
Protocol Conditions: C57BL/6Crl, mouse, whole blood, iv; 10 mg/kg i.v., male mice, blood
Experimental: In phase I, male mice were randomly assigned to Groups A, B, C, or D. Interventions per group are specified in Figure 2. Each group was divided into 3 cohorts and randomly assigned to receive p.o., i.p., or i.v. administration. […] The PK parameters for CBG were determined by GraphPad Prism (v. 10.2.3). […] Systemic clearance (ClS) was calculated as the ratio Dose i.v. /AUC ∞ . The apparent volume of distribution (Vd) was calculated as Dose i.v. /(k × AUC ∞ ). […]
Readout Name: AUC(0-inf) (ng·h/mL)
Answers are plain numbers, in ng·h/mL.

In plain terms, CCCCCc1cc(O)c(C/C=C(\C)CCC=C(C)C)c(O)c1 [CBG, cannabigerol] has a documented AUC(0-inf) of 2800

====

Procedure Details: Phase I pharmacokinetic profile: blood concentration vs time by HPLC-MS/MS after a single 10 mg/kg dose
Format: in vivo, C57BL/6Crl mice
Protocol Conditions: C57BL/6Crl, mouse, whole blood, ip; 10 mg/kg i.p., male mice, blood
Readout Name: Cmax

Lab note: `CCCCCc1cc(O)c(C/C=C(\C)CCC=C(C)C)c(O)c1` gave Cmax of 516 ng/mL

====

Procedure Details: Phase I pharmacokinetic profile: blood concentration vs time by HPLC-MS/MS after a single 10 mg/kg dose
Type: in vivo, C57BL/6Crl mice
Protocol Conditions: C57BL/6Crl, mouse, whole blood, ip; 10 mg/kg i.p., male mice, blood
Readout Name: AUC(0-inf) (ng·h/mL)
One number for each entry, in ng·h/mL.

AUC(0-inf) reading for `CCCCCc1cc(O)c(C/C=C(\C)CCC=C(C)C)c(O)c1` : 1170

====

Procedure Details: Phase I pharmacokinetic profile: blood concentration vs time by HPLC-MS/MS after a single 10 mg/kg dose
Assay type: in vivo, C57BL/6Crl mice
Protocol Conditions: C57BL/6Crl, mouse, whole blood, iv; 10 mg/kg i.v., male mice; read-out: ClS (systemic clearance)
Description: In phase I, male mice were randomly assigned to Groups A, B, C, or D. Interventions per group are specified in Figure 2. Each group was divided into 3 cohorts and randomly assigned to receive p.o., i.p., or i.v. administration. […] The PK parameters for CBG were determined by GraphPad Prism (v. 10.2.3). […] Systemic clearance (ClS) was calculated as the ratio Dose i.v. /AUC ∞ . The apparent volume of distribution (Vd) was calculated as Dose i.v. /(k × AUC ∞ ). […]
Readout Name: clearance (mL/min/kg)
Give bare numbers, in mL/min/kg.

Reported clearance for `CCCCCc1cc(O)c(C/C=C(\C)CCC=C(C)C)c(O)c1` was 59.4
